The molecules listed here are annotated with their growth at 10 µM.
test system: HCC 2998; experiment: Cytotoxicity against human HCC2998 cells assessed as cell growth at 10 uM after 48 hrs relative to control; format: functional; details: HCC 2998, 48 h, read-out: Activity

{"molecule.smiles": "COC(=O)[C@@H](NC(=O)N[C@H](C(=O)N[C@H]1CCCCNC(=O)/C=C/[C@H](Cc2c[nH]c3ccccc23)NC1=O)C(C)C)C(C)C", "growth at 10 µM / %": 44.2}
{"molecule.smiles": "COC(=O)[C@@H](NC(=O)N[C@@H](Cc1ccccc1)C(=O)N[C@H]1CCCCNC(=O)/C=C/[C@H](Cc2ccccc2)NC1=O)C(C)C", "growth at 10 µM / %": 5.56}
{"molecule.smiles": "COC(=O)[C@@H](NC(=O)N[C@@H](Cc1ccccc1)C(=O)N[C@H]1CCCCNC(=O)/C=C/[C@H](Cc2c[nH]c3ccccc23)NC1=O)C(C)C", "growth at 10 µM / %": 91.8}
{"molecule.smiles": "COC(=O)[C@@H](NC(=O)N[C@H](C(=O)N[C@H]1CCCCNC(=O)/C=C/[C@H](C(C)C)NC1=O)C(C)C)C(C)C", "growth at 10 µM / %": -0.39}
{"molecule.smiles": "COC(=O)[C@@H](NC(=O)N[C@@H](Cc1ccccc1)C(=O)N[C@H]1CCCCNC(=O)/C=C/[C@H](C(C)C)NC1=O)C(C)C", "growth at 10 µM / %": 52.8}
